In this section, each of the molecules is paired with its reported Δ = |logkw-MeOH − logkw-ACN|.
Experiment: Chromatographic (RP-HPLC) examination of lipophilicity, Snyder–Soczewiński model
Format: physicochemical
Settings: difference of logkw between modifiers
In your answer, state the number alone without any accompanying words.

Please review the following examples before continuing.
O=C1C(=Cc2cccc3ccccc23)C(=O)c2ccccc21 | 1.3533
CN(C)c1ccc(C=C2C(=O)c3ccccc3C2=O)cc1 | 1.0396
O=C1C(=CC2=Cc3cc(O)ccc3OC2)C(=O)c2ccccc21 | 1.1997
COc1ccc2c(OC)ccc(C=C3C(=O)c4ccccc4C3=O)c2c1 | 1.7531

Prompt line: Item under review: O=C1C(=Cc2ccc(O)cc2)C(=O)c2ccccc21 . Reported Δ = |logkw-MeOH − logkw-ACN|?
Response line: 1.3880

----------
In this section, each of the compounds is paired with its reported fraction unbound.
System: Human Serum Albumin (HSA)
Assay: Binding to albumin, fluorescence quenching
Details: human, human serum albumin solution (10 µM HSA), pH 7.4; calculated from association constant KS for albumin concentration in blood of 44 mg/mL (660 μM); read-out: free fraction (albumin)

Prompt line: Item under review: COc1ccc(C=C2C(=O)c3ccccc3C2=O)cc1 . Reported fraction unbound?
Response line: 0.06

Prompt line: Item under review: CN(C)c1ccc(C=C2C(=O)c3ccccc3C2=O)cc1 . Reported fraction unbound?
Response line: 0.06

----------
In this section, each of the compounds is paired with its reported bound fraction (albumin).
Tested on: Human Serum Albumin (HSA)
Assay: Binding to albumin, fluorescence quenching
Details: calculated from association constant KS for albumin concentration in blood of 44 mg/mL (660 μM)
Experimental: Fluorescence lifetime and fluorescence intensity of HSA solutions were measured using the time-resolved Fluorescence Spectrophotometer Life Spec II (Edinburgh Instruments Ltd., Livingston, UK) with the sub-nanosecond pulsed EPLED diode emitting a light of the wavelength 280 nm. […] The fluorescence decays were recorded at an emission wavelength of 350 nm. The data were fitted with an exponential decay to obtain total fluorescence intensity and lifetime. […]
Numbers only; they are read as %.

CN(C)c1ccc(C=C2C(=O)c3ccccc3C2=O)cc1 | 94
Cc1ccc(Oc2ccc(C=C3C(=O)c4ccccc4C3=O)cc2)cc1 | 97
O=C1C(=Cc2ccccc2)C(=O)c2ccccc21 | 97
O=C1C(=CC2=Cc3cc(O)ccc3OC2)C(=O)c2ccccc21 | 92

Next up:
Prompt line: Item under review: O=C1C(=Cc2ccc(N(c3ccccc3)c3ccccc3)cc2)C(=O)c2ccccc21 . Reported bound fraction (albumin)?
Response line: 83

----------
Assay: Chromatographic (RP-HPLC) examination of lipophilicity, Snyder–Soczewiński model
Type: physicochemical
Conditions: slope of the Snyder–Soczewiński regression curve, methanol as organic modifier
In this section, each of the compounds is paired with its reported −S (MeOH).
In your answer, state the number alone without any accompanying words.

O=C1C(=Cc2ccoc2)C(=O)c2ccccc21 [Compound 3H] | 2.6243
O=C1C(=Cc2ccc(N(c3ccccc3)c3ccccc3)cc2)C(=O)c2ccccc21 [Compound 3I] | 5.0483
O=C1C(=Cc2ccc(O)cc2)C(=O)c2ccccc21 [Compound 3J] | 2.5802
Cc1ccc(Oc2ccc(C=C3C(=O)c4ccccc4C3=O)cc2)cc1 [Compound 3D] | 5.4798

Next up:
Prompt line: Item under review: COc1ccc(C=C2C(=O)c3ccccc3C2=O)cc1 [Compound 3C] . Reported −S (MeOH)?
Response line: 3.2782

----------
Assay: Chromatographic (RP-HPLC) examination of lipophilicity, Snyder–Soczewiński model
Assay type: physicochemical
Settings: difference of logkw between modifiers
Threshold 1: Δ = |logkw-MeOH − logkw-ACN| strictly smaller gives YES, otherwise NO.

Examples with answers:
O=C1C(=Cc2ccoc2)C(=O)c2ccccc21 [Compound 3H] | YES
O=C1C(=Cc2ccccc2)C(=O)c2ccccc21 [Compound 3A, 2-benzylidene-1H-indene-1,3(2H)-dione] | NO
COc1ccc(C=C2C(=O)c3ccccc3C2=O)cc1 [Compound 3C] | NO
O=C1C(=Cc2ccc(N(c3ccccc3)c3ccccc3)cc2)C(=O)c2ccccc21 [Compound 3I] | NO
COc1ccc(C=C2C(=O)c3ccccc3C2=O)cc1O [Compound 3E] | YES

# input for lookup
Prompt line: Please indicate whether the reported Δ = |logkw-MeOH − logkw-ACN| of Cc1ccc(Oc2ccc(C=C3C(=O)c4ccccc4C3=O)cc2)cc1 [Compound 3D] is strictly below 1.
Response line: NO

----------
In this section, each of the compounds is paired with its reported −S (MeOH).
Assay: Chromatographic (RP-HPLC) examination of lipophilicity, Snyder–Soczewiński model
Assay type: physicochemical
Details: slope of the Snyder–Soczewiński regression curve, methanol as organic modifier
In your answer, state the number alone without any accompanying words.

Please review the following examples before continuing.
O=C1C(=CC2=Cc3cc(O)ccc3OC2)C(=O)c2ccccc21 | 3.0667
CN(C)c1ccc(C=C2C(=O)c3ccccc3C2=O)cc1 | 3.1597
O=C1C(=Cc2ccccc2)C(=O)c2ccccc21 | 3.3278

Prompt line: Item under review: COc1ccc(C=C2C(=O)c3ccccc3C2=O)cc1O . Reported −S (MeOH)?
Response line: 2.4114

Prompt line: Item under review: O=C1C(=Cc2cccc3ccccc23)C(=O)c2ccccc21 . Reported −S (MeOH)?
Response line: 3.8549

----------
Assay: Chromatographic (RP-HPLC) examination of lipophilicity, Snyder–Soczewiński model
Assay type: physicochemical
Settings: slope of the Snyder–Soczewiński regression curve, acetonitrile as organic modifier
Parameter Measured: −S (ACN)
In your answer, state the number alone without any accompanying words.

Please review the following examples before continuing.
O=C1C(=Cc2ccc(N(c3ccccc3)c3ccccc3)cc2)C(=O)c2ccccc21 | 3.7589
COc1ccc2c(OC)ccc(C=C3C(=O)c4ccccc4C3=O)c2c1 | 2.8762
Cc1ccc(Oc2ccc(C=C3C(=O)c4ccccc4C3=O)cc2)cc1 | 3.5570
COc1ccc(C=C2C(=O)c3ccccc3C2=O)cc1 | 2.4879
O=C1C(=Cc2ccoc2)C(=O)c2ccccc21 | 2.2011
O=C1C(=Cc2ccccc2)C(=O)c2ccccc21 | 2.4449
COc1ccc(C=C2C(=O)c3ccccc3C2=O)cc1O | 1.9201
O=C1C(=CC2=Cc3cc(O)ccc3OC2)C(=O)c2ccccc21 | 2.1213

Prompt line: Item under review: CN(C)c1ccc(C=C2C(=O)c3ccccc3C2=O)cc1 . Reported −S (ACN)?
Response line: 2.3613

Prompt line: Item under review: O=C1C(=Cc2cccc3ccccc23)C(=O)c2ccccc21 . Reported −S (ACN)?
Response line: 2.7449

----------
Assay: Chromatographic (RP-HPLC) examination of lipophilicity, Snyder–Soczewiński model
Format: physicochemical
Conditions: RP-HPLC, methanol as organic modifier, extrapolated Snyder–Soczewiński curve
Description: The chromatographic analysis was carried out on a Shimadzu device equipped with a pump system (LC-20AD model), a detector with a diode bench (SPD-M20A model), a degasser (DGU-20A 5R model), a chromatographic oven (CTO-10AS VP), autosampler (SIL-20AC HT model), and chromatographic column (LiChrospher 100 RP-18, 5 μm, Poznań, Poland). […] In individual analyses, the concentration of the organic modifier expressed as a […] was 0.75–0.95 with a constant step of 0.05. […]
Parameter Measured: logkw (MeOH)
In your answer, state the number alone without any accompanying words.

Please review the following examples before continuing.
O=C1C(=Cc2ccc(O)cc2)C(=O)c2ccccc21 | 2.3814
O=C1C(=Cc2cccc3ccccc23)C(=O)c2ccccc21 | 3.9640
O=C1C(=Cc2ccoc2)C(=O)c2ccccc21 | 2.5521
O=C1C(=Cc2ccc(N(c3ccccc3)c3ccccc3)cc2)C(=O)c2ccccc21 | 5.3524
CN(C)c1ccc(C=C2C(=O)c3ccccc3C2=O)cc1 | 3.2790
O=C1C(=Cc2ccccc2)C(=O)c2ccccc21 | 3.3210
Cc1ccc(Oc2ccc(C=C3C(=O)c4ccccc4C3=O)cc2)cc1 | 5.6763
COc1ccc(C=C2C(=O)c3ccccc3C2=O)cc1 | 3.3554
O=C1C(=CC2=Cc3cc(O)ccc3OC2)C(=O)c2ccccc21 | 2.9717

Next up:
Prompt line: Item under review: COc1ccc(C=C2C(=O)c3ccccc3C2=O)cc1O . Reported logkw (MeOH)?
Response line: 2.2321

----------
Experiment: Chromatographic (RP-HPLC) examination of lipophilicity, Snyder–Soczewiński model
Format: physicochemical
Details: RP-HPLC, acetonitrile as organic modifier, extrapolated Snyder–Soczewiński curve
Our labelling divides records by logkw (ACN) into ranges: bottom bin: < 2; middle bin: ≥ 2 and < 3; top bin: ≥ 3

Examples with answers:
O=C1C(=Cc2ccoc2)C(=O)c2ccccc21 [Compound 3H] | bottom bin
COc1ccc(C=C2C(=O)c3ccccc3C2=O)cc1 [Compound 3C] | middle bin

Prompt line: State the band of COc1ccc2c(OC)ccc(C=C3C(=O)c4ccccc4C3=O)c2c1 [Compound 3G]
Response line: middle bin

Prompt line: State the band of CN(C)c1ccc(C=C2C(=O)c3ccccc3C2=O)cc1 [Compound 3B]
Response line: middle bin

Prompt line: State the band of O=C1C(=Cc2cccc3ccccc23)C(=O)c2ccccc21 [Compound 3F]
Response line: middle bin

Cited source: paper PMC8434099
